B1: POLD4 (parent)
chain: ITDSYPVVKRREGPAGHSKGELAP

Variants of: B1
Experiment: protein stability index of a GFP-peptide fusion (GPS, HEK-293T) (PSI 1-6); higher = more stable;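 also: lentivirally expressed fusions sorted by FACS into six bins by GFP to DsRed ratio, PSI derived from sequencing read proportions per bin multiplied by bin number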
Conditions: c terminus: a fixed tail appended
Classification by protein stability index | ranges: 1: < 3; 2: ≥ 3 and < 4; 3: ≥ 4

I1Q	3

Please classify: A23F
2

Please classify: E12K
2

Please classify: Y5D
3

Please classify: D3N
1

Please classify: L22A
2

Please classify: E21W
1

Please classify: K9S
3
